# Tested on: Toxoplasma gondii RH (in HFF)
# Protocol description: parasite growth relative to the screen mean (all compounds = 100%); higher = less inhibition of parasite growth
# Measurement conditions: 5 µM; 72 h; oxygen 21 %
Where a name gives a salt, the structure may show the parent alone.
Kindly state parasite growth for each of the entries shown.
# value in %; strip the unit string

input: Request: parasite growth, test system Toxoplasma gondii RH (in HFF), entry C#CCOC(=O)C1=CCCN(C)C1 [Arecaidine propargyl ester tosylate]
output: 137

input: Can you check CC(=O)N(C)c1cccc(-c2ccnc3c(C(=O)c4cccs4)cnn23)c1 [Indiplon] next?
output: 79.5

input: Can you check CN(C)CCN(C)CCc1ccc(Cl)c(Cl)c1 [BD 1047 dihydrobromide] next?
output: 89.4

input: Can you check C[N+]1(C)CCc2cc3c(cc2[C@H]1[C@@H]1OC(=O)c2c1ccc1c2OCO1)OCO3 [(-)-Bicuculline methochloride] next?
output: 120

input: Can you check COc1cc(N)c(Cl)cc1C(=O)NC1CN2CCC1CC2 (configuration not stated) [Zacopride hydrochloride] next?
output: 142

input: Can you check O=C1Nc2cc(Cl)c(Cl)cc2N2CCNCC12 (configuration not stated) next?
output: 176

input: Can you check `COc1ccc2[nH]cc(C3=CCNCC3)c2c1` next?
output: 105

input: Can you check S=C=Nc1cccc(C2(N3CCCCC3)CCCCC2)c1 [Metaphit] next?
output: 51.3

input: Can you check `CCOC(=O)c1ncn2c1[C@@H]1CCCN1C(=O)c1cc(OC)ccc1-2` next?
output: 93.9

input: Can you check CC(C(=O)OC1CC2CCC(C1)N2C)c1ccc(Br)cc1 (configuration not stated) [PG-9 maleate] next?
output: 101

input: Can you check c1ccc(CC(c2ccccc2)N2CCCCC2)cc1 (racemic) [(±)-1-(1,2-Diphenylethyl)piperidine maleate] next?
output: 124

input: Can you check CCN1C[C@]2(COC(=O)c3ccccc3N3C(=O)C[C@H](C)C3=O)CC[C@H](OC)[C@@]34[C@@H]5C[C@H]6[C@H](OC)[C@@H]5[C@](O)(C[C@@H]6OC)[C@](O)([C@@H](OC)[C@H]23)[C@@H]14 [Methyllycaconitine citrate] next?
output: 83.1

input: Can you check c1ccc(CCCCN2CCC(c3ccccc3)CC2)cc1 [4-PPBP maleate] next?
output: 82.8

input: Can you check `O=C1CN=C(c2cccc(Br)c2)c2oc3ccccc3c2N1` next?
output: 96

###

# Tested on: Toxoplasma gondii RH (in HFF)
# Protocol description: parasite growth relative to the screen mean (all compounds = 100%); higher = less inhibition of parasite growth
# Measurement conditions: 5 µM; 72 h; oxygen 21 %
Structures can show the parent of a compound that is named as a salt.
Kindly state parasite growth for each of the entries shown.
# value in %; strip the unit string

input: Could you share which parasite growth value was measured for Clc1cccc(SC2CCNCC2)n1 [Anpirtoline hydrochloride] ?
output: 76.4

input: Can you check CC(CN)CC(=O)O (centres undefined) [3-Methyl-GABA] next?
output: 119

input: Can you check N#Cc1ccc(N2CCN(C(=O)COc3ccc4[nH]cc(CCN)c4c3)CC2)cc1 [Donitriptan hydrochloride] next?
output: 78.6

input: Can you check N.N.[Cl][Pt][Cl] [Cisplatin] next?
output: 144

input: Can you check C[C@@H]1CC[C@H]2[C@@H](C)C(=O)O[C@@H]3O[C@@]4(C)CC[C@@H]1[C@]32OO4 [Artemisinin] next?
output: 31.6

input: Can you check `O=C1C2CCN(CC2)C1(CO)CO` next?
output: 144

input: Can you check C[C@H](N)Cc1cnc[nH]1 [(S)-(+)-a-Methylhistamine dihydrobromide] next?
output: 113

input: Can you check BrC1C(Br)C(Br)C(Br)C(Br)C1Br (centres undefined) [1,2,3,4,5,6-Hexabromocyclohexane] next?
output: 112

input: Can you check `CCC[C@@H]1CC2=CC(=O)CC[C@]2(C)[C@H]2CC[C@@]3(C)[C@@H](CC[C@@]3(O)CCC(=O)O)[C@H]12` next?
output: 75.2

###

# Test system: Toxoplasma gondii RH (in HFF)
# Protocol description: parasite growth relative to the screen mean (all compounds = 100%); higher = less inhibition of parasite growth
# Measurement conditions: 5 µM; 72 h; oxygen 21 %
Counter-ions that a name gives are not always drawn.
Threshold check on parasite growth: at or above 90% gives Condition met, strictly below gives Condition not met.

input: Say whether CC[C@@H](CO)NC(=O)[C@@H]1C=C2c3cccc4c3c(cn4C)C[C@H]2N(C)C1 [Methysergide maleate] shows parasite growth of 90% or more.
output: Condition met

input: Can you check `O=C(O)Cc1cccnc1C(=O)O` next?
output: Condition not met

input: Can you check O=C1/C(=C/c2ccccc2)C[C@@]2(O)[C@H]3Cc4ccc(O)c5c4[C@@]2(CCN3CC2CC2)[C@H]1O5 [BNTX maleate] next?
output: Condition not met

input: Can you check O=C(CCCN1CCC2(CC1)C(=O)NCN2c1ccccc1)c1ccc(F)cc1 [Spiperone hydrochloride] next?
output: Condition met

input: Can you check Clc1ccc(C2=CCCC3CCC2N3)cn1 (centres undefined) [UB 165 fumarate] next?
output: Condition met

input: Can you check `Cc1cc(SCc2sc(-c3ccc(C(F)(F)F)c(F)c3)nc2C)ccc1OCC(=O)O` next?
output: Condition not met

input: Can you check `C(=C\c1ccccc1)/CN1CCN(CCOC(c2ccccc2)c2ccccc2)CC1` next?
output: Condition not met

input: Can you check c1ccc2c(c1)OCC(C1=NCCN1)O2 (centres undefined) [Idazoxan hydrochloride] next?
output: Condition met

input: Can you check `CCCN(CCC)C1Cc2cc(OC)c(OC)cc2C1` next?
output: Condition met

###

# Test system: Toxoplasma gondii RH (in HFF)
# Protocol description: parasite growth relative to the screen mean (all compounds = 100%); higher = less inhibition of parasite growth
# Measurement conditions: 5 µM; 72 h; oxygen 21 %
Counter-ions that a name gives are not always drawn.
Kindly state parasite growth for each of the entries shown.
# value in %; strip the unit string

input: Request: parasite growth, test system Toxoplasma gondii RH (in HFF), entry C[C@@H](N)Cc1cnc[nH]1 [(R)-(-)- α-Methylhistamine dihydrobromide]
output: 107

input: Can you check O=C1NCN(c2ccccc2)C12CCN(CC1COc3ccccc3O1)CC2 (stereo unspecified) next?
output: 141

input: Can you check `C[C@H](Cc1ccc(OCC(=O)O)cc1)NC[C@H](O)c1cccc(Cl)c1` next?
output: 90.6

input: Can you check FC(F)(F)c1cccc(C2=CCN(CCc3ccc4ccccc4c3)CC2)c1 [Xaliproden hydrochloride] next?
output: 159

input: Can you check `O=C(O)c1nn(Cc2ccc(Cl)cc2Cl)c2ccccc12` next?
output: 77.9

input: Can you check `C/C(O)=C(\C#N)C(=O)Nc1cc(Br)ccc1Br` next?
output: 130

input: Can you check `CS(=O)(=O)Nc1ccc(Cc2noc(-c3ccc4[nH]cc(CCN)c4c3)n2)cc1` next?
output: 124

input: Can you check `Ic1cncc(OC[C@@H]2CCN2)c1` next?
output: 137

input: Can you check NC(C(=O)O)c1nn[nH]n1 (racemic) [(RS)-(Tetrazol-5-yl)glycine] next?
output: 146

input: Can you check `CCOC(=O)c1ncc2[nH]c3ccc(OCc4ccccc4)cc3c2c1COC` next?
output: 83.8

input: Can you check `COC1(C[S@+]([O-])c2ccccc2)CCN(CCc2c[nH]c3ccc(F)cc23)CC1` next?
output: 67.1

input: Can you check O=C1CSC(c2ccccc2Cl)c2cc(Cl)ccc2N1 (stereo unspecified) next?
output: 153

input: Can you check `C=CCN1C[C@H](C)N([C@H](c2ccc(C(=O)N(CC)CC)cc2)c2cccc(OC)c2)C[C@H]1C` next?
output: 42.5

input: Can you check NP(N)(=O)NC(=O)c1ccc(F)cc1 [Flurofamide] next?
output: 90

input: Can you check C=CCN1CC[C@]23c4c5ccc(O)c4O[C@H]2/C(=N/NC(=O)c2ccccc2)CC[C@@]3(O)[C@H]1C5 [Naloxone benzoylhydrazone] next?
output: 108

input: Can you check `C[N+](C)(C)CC#CCN1CCCC1=O` next?
output: 172

input: Can you check Cc1onc(O)c1CC(N)C(=O)O (racemic) next?
output: 107

input: Can you check `NCc1cc(O)no1` next?
output: 154

input: Can you check `COc1ccc(C(=O)N2CCCC2=O)cc1` next?
output: 97.2

input: Can you check CCOc1cncc(/C=C/CCNC)c1 [TC 2559 difumarate] next?
output: 90.8

input: Can you check CCCCC1(C2CCCC2)Cc2cc(OCCCC(=O)O)c(Cl)c(Cl)c2C1=O (stereo unspecified) next?
output: 124

###

Kindly state parasite growth for each of the entries shown.
# System: Toxoplasma gondii RH (in HFF)
# Protocol description: parasite growth relative to the screen mean (all compounds = 100%); higher = less inhibition of parasite growth
# Measurement conditions: 5 µM; 72 h; oxygen 21 %
Structures can show the parent of a compound that is named as a salt.
# value in %; strip the unit string

input: Could you share which parasite growth value was measured for CCCN(CCC)[C@@H]1CCc2c(OC)cccc2[C@@H]1C [(+)-UH 232 maleate] ?
output: 115

input: Can you check Oc1ccc2c3c1O[C@H]1c4[nH]c5c(c4C[C@@]4(O)[C@@H](C2)N(CC2CC2)CC[C@]314)C[C@@]1(O)[C@H]2Cc3ccc(O)c4c3[C@@]1(CCN2CC1CC1)[C@H]5O4 [nor-Binaltorphimine dihydrochloride] next?
output: 123

input: Can you check Oc1ccc2c3c1O[C@H]1c4oc5ccccc5c4C[C@@]4(O)[C@@H](C2)N(CC2CC2)CC[C@]314 [Naltriben mesylate] next?
output: 127

input: Can you check CCCN[C@@H]1CCc2c(OC)cccc2[C@@H]1C [(+)-AJ 76 hydrochloride] next?
output: 66.5

input: Can you check Cc1ccc(C[N+](C)(C)C)o1 [5-Methylfurmethiodide] next?
output: 100

input: Can you check c1ccc(C2CNCc3ccccc32)cc1 (configuration not stated) [4-Phenyl-1,2,3,4-tetrahydroisoquinoline hydrochloride] next?
output: 98.2

input: Can you check O=C(O)/C=C/CO [trans-4-Hydroxycrotonic acid] next?
output: 108
